TARGET UNDER TEST: YB-1 (full-length) (human, UniProt P67809 1-324)
Sequence (P67809 whole entry): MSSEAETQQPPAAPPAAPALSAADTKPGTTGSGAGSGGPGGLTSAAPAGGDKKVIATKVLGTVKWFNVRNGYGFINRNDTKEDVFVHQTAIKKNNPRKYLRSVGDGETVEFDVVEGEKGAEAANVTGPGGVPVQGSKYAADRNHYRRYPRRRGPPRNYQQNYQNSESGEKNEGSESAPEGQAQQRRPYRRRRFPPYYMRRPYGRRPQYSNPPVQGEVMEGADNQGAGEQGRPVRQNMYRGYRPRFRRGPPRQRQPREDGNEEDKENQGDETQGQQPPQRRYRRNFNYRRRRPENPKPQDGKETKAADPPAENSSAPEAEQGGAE
ASSAY PROCEDURE: EMSA; apparent Kd, protein concentration at 50% saturation; 7 pmol RNA in 10 ul; 10 mM Hepes-KOH pH 7.6, 100 mM KCl, 30 C, 15 min, 10 ul; 8% native PAGE in TBE, silver staining
MEASUREMENT PARAMETERS: protein: recombinant; single strand
READOUT: Kd (nM)
Numbers only here, please. The scale is nM.

Record AGGAUGGGUGAGUGAGGUAG (ssRNA) [G-rich RNA 20-mer] . Reported Kd: 300

Measured values drawn from paper PMC4493011 for this set.
